test system: HEp-2; experiment: Cytotoxicity against human HEp-2 cells assessed as reduction in MTS absorbance at 100 uM by MTS assay; assay type: cell-based; design: scale not given: the % may be the effect or the level left; conditions: hep-2, 100 µM
Metric: Activity

As a guide, the following entries are already answered.
1. CCC(C)C(NC(=O)Cn1cccc(NC(=O)Oc2ccccc2)c1=O)P(=O)(Oc1ccccc1)Oc1ccccc1 (stereo not drawn) ... <= 25%
2. CC(C)C(NC(=O)Cn1cccc(NC(=O)Oc2ccccc2)c1=O)P(=O)(Oc1ccccc1)Oc1ccccc1 (stereo not drawn) ... <= 25%
3. CCC(C)C(NC(=O)C(C)n1cccc(NC(=O)OC(C)(C)C)c1=O)P(=O)(Oc1ccccc1)Oc1ccccc1 (stereo not drawn) ... <= 25%
4. CCC(C)C(NC(=O)[C@@H]1CCCN1C(=O)[C@@H](NC(=O)NC(C)(C)C)C(C)(C)C)P(=O)(Oc1ccccc1)Oc1ccccc1 (stereo partly drawn) ... Toxic
5. CCC(C)C(NC(=O)[C@@H]1CCCN1C(=O)[C@@H](NC(=O)OCc1ccccc1)C(C)(C)C)P(=O)(Oc1ccccc1)Oc1ccccc1 (stereo partly drawn) ... Toxic
6. CC(C)C(NC(=O)[C@@H]1CCCN1C(=O)[C@@H](NC(=O)NC(C)(C)C)C(C)(C)C)P(=O)(Oc1ccccc1)Oc1ccccc1 (stereo partly drawn) ... Toxic

Request: Which Activity value belongs to CC(C)C(NC(=O)C(C)n1cccc(NC(=O)OC(C)(C)C)c1=O)P(=O)(Oc1ccccc1)Oc1ccccc1 (stereo not drawn) ?
Response: <= 25%

Request: # Activity lookup, item CCC(C)C(NC(=O)[C@@H]1CCCN1C(=O)[C@@H](NC(=O)C(C)(C)C)C(C)(C)C)P(=O)(Oc1ccccc1)Oc1ccccc1 (stereo partly drawn)
Response: Toxic

* * *

Target: Neutrophil elastase (Homo sapiens, UniProt P08246)
Sequence (P08246 whole entry): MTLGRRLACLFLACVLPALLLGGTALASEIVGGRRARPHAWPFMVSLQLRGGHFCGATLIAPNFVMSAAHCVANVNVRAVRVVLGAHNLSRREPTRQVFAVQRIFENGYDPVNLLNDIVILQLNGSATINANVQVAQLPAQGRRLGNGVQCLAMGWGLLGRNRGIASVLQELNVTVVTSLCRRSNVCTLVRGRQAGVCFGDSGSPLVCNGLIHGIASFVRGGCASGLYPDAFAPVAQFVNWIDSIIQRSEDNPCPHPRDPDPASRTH
Test: Inhibition of human neutrophil elastase using methoxysuccinyl-Ala-Ala-Pro-Val-pNA as substrate incubated for 15 min
Metric: IC50 (µM)
Unit µM implied. Number only.

Some solved entries appear below for comparison.
1. CC(C)C(NC(=O)[C@@H]1CCCN1C(=O)[C@@H](NC(=O)OC(C)(C)C)C(C)(C)C)P(=O)(Oc1ccccc1)Oc1ccccc1 (stereo partly drawn) ... 3.02
2. CC(C)C(NC(=O)[C@@H]1CCCN1C(=O)[C@@H](NC(=O)OC(C)(C)C)C(C)C)P(=O)(Oc1ccccc1)Oc1ccccc1 (stereo partly drawn) ... 1.15

Please find the next molecule below.
Request: Can you look up the measured IC50 of CCC(C)C(NC(=O)[C@@H]1CCCN1C(=O)[C@@H](NC(=O)OC(C)(C)C)C(C)(C)C)P(=O)(Oc1ccccc1)Oc1ccccc1 (stereo partly drawn) for me?
Response: 13.5
